Each recorded value in this set is attributed to PubChem BioAssay (NCATS).

# measured_target: Thyrotropin-releasing hormone receptor (Homo sapiens)
# method_notes: qHTS for Small Molecule Agonists and Allosteric Enhancers of Human TRH Receptor: Validation Screen for Agonists (AID 493127);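 note: intracellular calcium rise by fluo-8 fluorescence before TRH EC20 addition; 0% is about no effect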
# experimental_context: TRH receptor agonist cell assay; at 2 µM; active compounds read high
Activity calls are given as the source filed them.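 Rule for the calls: active = calcium activation more than 3 SD above the typical response in the agonist read; inactive = the rest.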
Readings of activation for the listed compounds

compound: COc1ccc(/C=C/C(=O)Nc2ccccc2C(=O)O)cc1OC
activation: -5.44% (inactive)
//
compound: NCCCCCCCCCCN
activation: 0.938% (inactive)
//
compound: NCCCS(=O)(=O)O
activation: 0.5% (inactive)
//
compound: O=C(Nc1cccc(C(=O)Nc2ccc(S(=O)(=O)O)c3cc(S(=O)(=O)O)cc(S(=O)(=O)O)c23)c1)Nc1cccc(C(=O)Nc2ccc(S(=O)(=O)O)c3cc(S(=O)(=O)O)cc(S(=O)(=O)O)c23)c1
activation: 0.875% (inactive)
//
compound: CN[C@H](CC(C)C)C(=O)N[C@H]1C(=O)N[C@@H](CC(N)=O)C(=O)N[C@H]2C(=O)N[C@H]3C(=O)N[C@H](C(=O)N[C@H](C(=O)O)c4cc(O)cc(O)c4-c4cc3ccc4O)[C@H](O)c3ccc(c(Cl)c3)Oc3cc2cc(c3O[C@@H]2O[C@H](CO)[C@@H](O)[C@H](O)[C@H]2O[C@H]2C[C@](C)(N)[C@H](O)[C@H](C)O2)Oc2ccc(cc2Cl)[C@H]1O
activation: -0.312% (inactive)
//
compound: COc1cc(OC)c(/C=C2/C(=O)Nc3ccccc32)c(OC)c1
activation: 1.38% (inactive)
//
compound: CCCCC/C=C\CC(O)/C=C/c1cccc(CC(O)CCCCO)n1 (configuration not stated)
activation: -2.94% (inactive)

---

# method_notes: Primary qHTS for inhibitors of nuclear receptor binding SET domain protein 2 (NSD2) in an RCH-ACV wild type WT cells (2C) (AID 1645877); note: nearly all actives have a fitted effect of over 70% in size
# experimental_context: RCH-ACV (leukaemia line) NSD2 WT (2C) viability, CellTiter-Glo, 72 h; series mostly up to 44.9 µM
Results filed as inconclusive are left out. Active and inactive are the calls of the source. The call rests on the fitted dose curve; in most records, active means well fitted inhibition curve with a large enough effect; inconclusive means small, poorly fitted or top-dose-only effect; inactive means no such curve, though single readings can be large or run the other way.
Labels: 1 (yes) (active), 0 (no) (inactive)

molecule: CC(C(=O)O)c1ccc2c(c1)[nH]c1ccc(Cl)cc12 (stereo not given)
class: 0 (no)
--
molecule: O=C(OCc1ccccc1)c1ccccc1
class: 0 (no)
--
molecule: C/C(=N\O)c1ccc(OCC(=O)N2CCCCC2)cc1
class: 0 (no)
--
molecule: COc1cc(/C=C/C(=O)CC(=O)/C=C/c2ccc(O)c(OC)c2)ccc1O
class: 1 (yes)
--
molecule: CCCSc1ccc2nc(NC(=O)OC)[nH]c2c1
class: 1 (yes)
--
molecule: COC(=O)C1=C(C)NC(C)=C(C(=O)OC)C1c1cccc(NC(=O)NCCCN2CCC(c3cccc(OC)c3)CC2)c1
class: 1 (yes)
--
molecule: CC(=O)O[C@H]1C[C@@]2(C)[C@@H](C[C@@H](O)[C@H]3[C@@]4(C)CC[C@@H](O)[C@@H](C)[C@@H]4CC[C@@]32C)/C1=C(\CCC=C(C)C)C(=O)O
class: 0 (no)
--
molecule: C[C@H](O)[C@H](O)[C@H]1CNc2nc(N)[nH]c(=O)c2N1
class: 0 (no)
--
molecule: COC(=O)C1=C(C)NC(C)=C(C(=O)OCC(C)C)C1c1ccccc1[N+](=O)[O-] (stereo not given)
class: 1 (yes)
--
molecule: CC(C)(C)c1nnc(NS(=O)(=O)c2ccc(N)cc2)s1
class: 0 (no)
--
molecule: COc1cc(/C=C/C(=O)N2CCN(CC(=O)N3CCCC3)CC2)cc(OC)c1OC
class: 0 (no)
--
molecule: O=C(CCN1CCN(CCO)CC1)N1c2ccccc2Sc2ccc(C(F)(F)F)cc21
class: 0 (no)
--
molecule: O=C(O)CC1CC(c2ccccc2)=NO1 (stereo not given)
class: 0 (no)
--
molecule: Cc1c(N)c(=O)n(-c2ccccc2)n1C
class: 0 (no)
--
molecule: CCCCCCCCCCCCCCCCCC(=O)O
class: 0 (no)
--
molecule: CC1(C)S[C@@H]2[C@H](NC(=O)[C@H](NC(=O)N3CCN(S(C)(=O)=O)C3=O)c3ccccc3)C(=O)N2[C@H]1C(=O)O
class: 0 (no)
--
molecule: CN1CC(=O)N/C1=N/C(=O)Nc1cccc(Cl)c1
class: 0 (no)
--
molecule: Cc1ccc(O)c(-n2nc3ccccc3n2)c1
class: 0 (no)
--
molecule: CC[C@H]1OC(=O)[C@H](C)[C@@H](O[C@H]2C[C@@](C)(OC)[C@@H](O)[C@H](C)O2)[C@H](C)[C@@H](O[C@@H]2O[C@H](C)C[C@H](N(C)C)[C@H]2O)[C@](C)(O)C[C@@H](C)C(=O)[C@H](C)[C@@H](O)[C@]1(C)O
class: 0 (no)
--
molecule: COC(=O)Nc1nc2ccc(C(=O)C3CC3)cc2[nH]1
class: 1 (yes)
